tgt: STING in THP1 cells (HAQ allele) (Homo sapiens, UniProt Q86WV6, G230A/H232R/R293Q/R71H)
Construct: host or cells: THP-1 dual reporter cells
Sequence (Q86WV6 whole entry R71H/G230A/H232R/R293Q): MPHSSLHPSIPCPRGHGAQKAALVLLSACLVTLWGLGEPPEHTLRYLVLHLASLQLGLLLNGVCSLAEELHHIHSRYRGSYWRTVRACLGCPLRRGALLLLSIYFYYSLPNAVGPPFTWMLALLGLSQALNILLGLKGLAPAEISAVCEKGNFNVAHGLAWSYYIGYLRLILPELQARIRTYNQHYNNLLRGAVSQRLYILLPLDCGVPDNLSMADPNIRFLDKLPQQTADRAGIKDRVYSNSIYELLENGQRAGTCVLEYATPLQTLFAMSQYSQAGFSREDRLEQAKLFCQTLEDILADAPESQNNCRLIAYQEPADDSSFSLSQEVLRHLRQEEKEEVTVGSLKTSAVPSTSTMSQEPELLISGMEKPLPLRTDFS
experiment.notes: THP-1 competition assay with STING agonist 2′3′-RR-(A)(A) (IRF-3 luciferase reporter)
Format: cell-based
conditions.used: 50 μM 2′3′-RR-(A)(A), scaffold 2,000 μM-3.9 μM, without digitonin, IRF-3 reporter; read-out: IC50 inhibition of 2′3′-RR-(A)(A) agonist activity without digitonin in THP1 cells (HAQ allele)
assay.readout: log10(IC50) (log10 of the value in µM)
Parameter value (number): base-10 log of IC50 in µM.

Examples from the recorded data:
CC(C)C(=O)Nc1nc2c(ncn2[C@@H]2O[C@@H]3CO[P@@](=O)(S)O[C@@H]4[C@H](O)[C@@H](CO[P@@](=O)(S)O[C@H]3[C@H]2O)O[C@H]4n2cnc3c(NC(=O)c4ccccc4)ncnc32)c(=O)[nH]1 [Compound 42]
2.98
Nc1nc(N)c2ncn([C@@H]3O[C@@H]4CO[P@@](=O)(S)O[C@H]5[C@@H](O)[C@H](n6cnc7c(N)nc(N)nc76)O[C@@H]5CO[P@](=O)(S)O[C@H]4[C@H]3O)c2n1 [Compound 23a]
2.18
Nc1nc2c(ncn2[C@@H]2O[C@@H]3CO[P@](=O)(S)O[C@@H]4[C@H](O)[C@@H](CO[P@](=O)(S)O[C@H]3[C@H]2O)O[C@H]4n2cnc3c(N)ncnc32)c(=O)[nH]1 [Compound 43]
3.61
CC(C)C(=O)Nc1nc2c(ncn2[C@@H]2O[C@@H]3CO[P@@](=O)(S)O[C@H]4[C@@H](F)[C@H](n5cnc6c(=O)[nH]c(NC(=O)C(C)C)nc65)O[C@@H]4CO[P@@](=O)(S)O[C@H]3[C@H]2F)c(=O)[nH]1 [Compound 32]
2.90

[ask] Enter recorded log10(IC50) with STING in THP1 cells (HAQ allele) (Homo sapiens, UniProt Q86WV6, G230A/H232R/R293Q/R71H) for Nc1ncnc2c1ncn2[C@H]1O[C@H]2CO[P@](=O)(S)O[C@@H]3[C@H](O)[C@@H](n4cnc5c(N)ncnc54)O[C@H]3CO[P@](=O)(S)O[C@@H]2[C@@H]1O [Compound 48] here.
[reply] 2.82

[ask] Enter recorded log10(IC50) with STING in THP1 cells (HAQ allele) (Homo sapiens, UniProt Q86WV6, G230A/H232R/R293Q/R71H) for Nc1ncnc2c1ncn2[C@H]1O[C@H]2CO[P@@](=O)(S)O[C@@H]3[C@H](O)[C@@H](n4cnc5c(N)ncnc54)O[C@H]3CO[P@](=O)(S)O[C@@H]2[C@@H]1O [Compound 48a] here.
[reply] 2.49
